Recorded values, source PubChem BioAssay (NCATS).

System: P93_24
Assay: qHTS profiling for inhibitors of Plasmodium falciparum proliferation (AID 504749); also: nearly all actives have a fitted effect of over 60% in size; also: potency is read from the fitted curve at half-maximal effect
Details: P. falciparum in erythrocytes, SYBR Green DNA, 72 h; series mostly up to 28.7 µM
Records with an inconclusive call do not appear. Activity calls are given as the source filed them. Calls follow the shape of the dose curve; as a rule, active = well fitted inhibition curve with a large enough effect; inconclusive = small, poorly fitted or top-dose-only effect; inactive = flat fitted curve, though single readings scatter.
reported_metric: Potency

Consider the reported Potency for these molecules:
• Cl/C(=C\n1cncn1)c1ccc(Cl)cc1Cl = inactive
• CCCCC(CC)COC(=O)c1ccc(N(C)C)cc1 (stereo not drawn) = inactive
• CC(C)Cn1cnc2c1c(=O)n(C)c(=O)n2C = inactive
• N=C(N)N1CCc2ccccc2C1 = inactive
• O=C1C(=O)c2ccccc2C(O)=C1C1CCC(c2ccc(Cl)cc2)CC1 (stereo not drawn) = 0.004 µM (active)
• O=C(Nc1cccc(C2=NCCN2)c1)Nc1cccc(C2=NCCN2)c1 = 1.78 µM (active)
• CCN(CC)CCNC(=O)COc1ccc(OC)cc1 = inactive
• CC(=O)Nc1ncc([N+](=O)[O-])s1 = inactive
• O=C(c1ccc(F)cc1)C1CCN(CCn2c(=S)[nH]c3ccccc3c2=O)CC1 = 3.98 µM (active)
• COc1cc(C(=O)NCc2ccc(OCCN(C)C)cc2)cc(OC)c1OC = inactive

Lab note: each molecule below needs its Potency filled in.
1. CCCCN=C(N)N=C(N)N
2. CCN1/C(=C/C=C/c2sc3ccccc3[n+]2CC)Sc2ccccc21
3. Oc1ccccc1C=NCc1ccccc1
4. COP(=O)(OC)OC(c1ccc(Cl)cc1)P(=O)(OC)OC (stereo not drawn)
5. CC[C@H](c1ccc(O)cc1)[C@@H](CC)c1ccc(O)cc1
6. CC(=O)Nc1ccc(S(=O)(=O)Nc2ccc([N+](=O)[O-])cc2)cc1

Result block:
1. inactive
2. 0.112 µM (active)
3. inactive
4. inactive
5. inactive
6. inactive

Lab note: each molecule below needs its Potency filled in.
1. CN(C)CCC[C@@]1(c2ccc(F)cc2)OCc2cc(C#N)ccc21
2. O=C(NCCc1c[nH]c2ccccc12)c1cccnc1
3. Cc1c[nH]c2ccccc12
4. CCOc1ccc(NC(C)=O)cc1
5. CC(C)(C)CC(C)(C)c1ccc(O)c(-n2nc3ccccc3n2)c1

Result block:
["inactive", "inactive", "inactive", "inactive", "10 µM (active)"]

Lab note: each molecule below needs its Potency filled in.
1. O=C(Oc1cccc2cccnc12)c1ccccc1
2. NC(=S)N/N=C/c1cccnc1

Result block:
inactive
inactive

Lab note: each molecule below needs its Potency filled in.
1. CC(C)(C)NC[C@H](O)COc1cccc2c1CCCC2=O
2. O=C(O)C(Cc1cc(I)c(O)c(I)c1)c1ccccc1 (stereo not drawn)
3. CCCCCCCCCCCCSCCOCCO
4. CCN(CC)CCOc1ccc2c(c1)C(=O)c1cc(OCCN(CC)CC)ccc1-2
5. CCCN(CCc1cccs1)[C@H]1CCc2c(O)cccc2C1

Result block:
inactive
inactive
inactive
11.2 µM (active)
6.31 µM (active)

====

Tested on: KB-3-1
Experiment: Cytotoxic Profiling of Annotated Libraries Using Quantitative High-Throughput Screening (AID 1296008); also: % is scaled to controls: 0 for no effect and ±100 for the full control effect; nearly all actives have a fitted effect of over 60% in size
Settings: Five cell lines viability, CellTiter-Glo ATP luminescence, 48-72 h; stronger effect = lower value
Records with an inconclusive call do not appear.
For each entry below, report its max response value.
Answers are plain numbers, in %.

- C[C@@H](O)[C@H]1C(=O)N2C(C(=O)O)=C(S[C@@H]3CN[C@H](CNS(N)(=O)=O)C3)[C@H](C)[C@H]12: 7.85
- FC(F)(F)C(F)(F)C(F)(F)C(F)(F)C(F)(F)C(F)(F)C(F)(F)C(F)(F)Br: 13.3
- CC(C)(C)NC[C@H](O)COc1nsnc1N1CCOCC1: 0.822

Query block: For the compound shown here, CC(=O)O[C@H]1C[C@@H]2CC[C@@H]3[C@H](CC[C@@]4(C)[C@H]3C[C@H]([N+]3(C)CCCCC3)[C@@H]4OC(C)=O)[C@@]2(C)C[C@@H]1N1CCCCC1 , give the reported max response.
Result block: -0.262

====

Assay: qHTS of pediatric cancer cell lines to identify multiple opportunities for drug repurposing: Primary screen for BT-37 cells (AID 1347094)
Conditions: BT-37 viability, CellTiter-Glo luminescence, 48 h; series mostly up to 57.3 µM
Procedure: Drug repurposing or repositioning has been offered as a strategy for drug development in oncology programs. This approach has special potential for childhood cancers and other rare or orphan diseases, where the expected return on new drug development has been a disincentive to pharmaceuticals. […] We employed a titration-based paradigm (quantitative high-throughput screening or qHTS), where all compounds were tested at multiple concentrations for their effect on cell viability. […]
Inconclusive results are not listed. Active and inactive are the calls of the source. The call rests on the fitted dose curve; in most records, active means well fitted cell-killing curve with a large enough effect; inconclusive means small, poorly fitted or top-dose-only effect; inactive means flat fitted curve, though single readings scatter.
Return exactly one item of 1 = active, -1 = inactive

Below are worked cases with known answers.
• CCOC(=O)[C@H](CCc1ccccc1)N[C@@H](C)C(=O)N1[C@H](C(=O)O)C[C@@H]2CCC[C@@H]21 = -1
• O=C1OC2(c3ccccc31)c1cc(Br)c(O)c(Br)c1Oc1c2cc(Br)c(O)c1Br = -1
• CCN1/C(=C/C=C/c2sc3ccccc3[n+]2CC)Sc2ccccc21 = 1
• C#C[C@]1(O)CC[C@H]2[C@@H]3CCC4=CC(=O)CC[C@@H]4[C@H]3CC[C@@]21CC = -1
• Cc1cccc(C)c1NC(=O)CN1CCCCCC1 = -1
• Cc1ccc(-c2ncc(Cl)cc2-c2ccc(S(C)(=O)=O)cc2)cn1 = -1

# next compound below
Query block: Hello, I am checking results. What call was entered for CCC1NC(=O)c2cc(S(N)(=O)=O)c(Cl)cc2N1 (configuration not stated) ?
Result block: -1

====

System: PC26
Test: qHTS profiling for inhibitors of Plasmodium falciparum proliferation (AID 504749); also: nearly all actives have a fitted effect of over 60% in size
Details: P. falciparum in erythrocytes, SYBR Green DNA, 72 h; series mostly up to 28.7 µM
Results filed as inconclusive are left out. Calls of active or inactive are those of the source. Calls follow the shape of the dose curve; as a rule, active = well fitted inhibition curve with a large enough effect; inconclusive = small, poorly fitted or top-dose-only effect; inactive = flat fitted curve, though single readings scatter.
Return exactly one item of Y = active, N = inactive

* CCOc1cc(OCC)c(C(=O)CCC(=O)O)cc1OCC | N
* CC(=O)N[C@@H](CCC(=O)O)C(=O)O | N
* CC(C)(C)NC[C@H](O)COc1cccc2c1CCCC2=O | N

# next compound below
Query block: Hello, I am checking results. What call was entered for O=C1C(=O)c2ccccc2C(O)=C1C1CCC(c2ccc(Cl)cc2)CC1 (stereo not given) ?
Result block: Y

====

Tested on: CP286
Assay: qHTS profiling for inhibitors of Plasmodium falciparum proliferation (AID 504749); also: nearly all actives have a fitted effect of over 60% in size
Conditions: P. falciparum in erythrocytes, SYBR Green DNA, 72 h; series mostly up to 28.7 µM
Results filed as inconclusive are left out. The source made the active and inactive calls. Calls come from the whole dose curve; as a rule, active = well fitted inhibition curve with a large enough effect; inconclusive = small, poorly fitted or top-dose-only effect; inactive = flat fitted curve, though single readings scatter.
Return exactly one item of active, inactive

Below are worked cases with known answers.
• CCOC(=O)[C@H](CCc1ccccc1)N[C@@H](C)C(=O)N1[C@H](C(=O)O)C[C@H]2CCCC[C@@H]21 = inactive
• CCN1/C(=C/C=C/c2sc3ccccc3[n+]2CC)Sc2ccccc21 = active
• Cc1cc2c(OCC(CNC(C)(C)C)OC(=O)c3ccccc3)cccc2[nH]1 (centres undefined) = active
• CC(=O)Nc1ccc(OCC(O)CNC(C)C)cc1 (centres undefined) = inactive
• Cc1cc(NS(=O)(=O)c2ccc(N)cc2)nc(C)n1 = inactive

Query block: Hello, I am checking results. What call was entered for Cn1c(=O)c2[nH]c(Br)nc2n(C)c1=O ?
Result block: inactive

Query block: Try this compound next: C#C[C@]1(OC(C)=O)CC[C@H]2[C@@H]3CCC4=C/C(=N/O)CC[C@@H]4[C@H]3CC[C@@]21CC
Result block: inactive

Query block: Try this compound next: CCCN(CCc1cccs1)[C@H]1CCc2c(O)cccc2C1
Result block: active

Query block: Try this compound next: CCN(CC)CCNC(=O)c1cc(Br)c(N)cc1OC
Result block: inactive

Query block: Try this compound next: COc1ccc(-c2cc(C(F)F)nn2-c2ccc(S(N)(=O)=O)cc2)cc1F
Result block: inactive

Query block: Try this compound next: CCCCc1cc2ccccc2c(OCCN(C)C)n1
Result block: inactive

====

System: Zika virus NS2B-NS3 protease
Test: Primary screen GU AMC qHTS for Zika virus inhibitors (AID 1347154);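 also: 0% = no-inhibitor control and -100% = no-enzyme control; nearly all actives have a fitted effect of over 70% in size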
Settings: Zika NS2B-NS3 unlinked protease, AMC fluorogenic substrate; series mostly up to 54.1 µM
Inconclusive results are not listed. Active and inactive are the calls of the source. Calls follow the shape of the dose curve; as a rule, active = well fitted inhibition curve with a large enough effect; inconclusive = small, poorly fitted or top-dose-only effect; inactive = flat fitted curve, though single readings scatter.
Return exactly one item of 1 (yes) for active, 0 (no) for inactive

Below are worked cases with known answers.
• O=[N+]([O-])c1cccc(S(=O)(=O)NCCNS(=O)(=O)c2cccc([N+](=O)[O-])c2)c1 = 0 (no)
• O=C1OC2(c3ccccc31)c1cc(Br)c(O)c(Br)c1Oc1c2cc(Br)c(O)c1Br = 0 (no)
• CCN(CC)CCOc1ccccc1C(=O)CCc1ccccc1 = 0 (no)
• CC(=O)OC[C@H]1O[C@@H](n2ncc(=O)[nH]c2=O)[C@H](OC(C)=O)[C@@H]1OC(C)=O = 0 (no)

Query block: Hello, I am checking results. What call was entered for CCOC(=O)c1ccc(N)cc1 ?
Result block: 0 (no)
